List of amyloid nucleation score values.
# TEST_SUMMARY: amyloid nucleation score (Sup35N fusion, yeast selection) (log enrichment); library NNK1; higher = more nucleation; inactive = no reads after selection;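 also: zero at mode of non-aggregating sequences after 7 days selection at 30°C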

- SUBSTANCE: "SMGLKPGEVCLNKDFDSH"
  amyloid nucleation score: 0.036
- SUBSTANCE: "FQASSLTGPH"
  amyloid nucleation score: -0.574
- SUBSTANCE: "IYTRFFNTV"
  amyloid nucleation score: -0.222
- SUBSTANCE: "EGRSWW"
  amyloid nucleation score: -0.691
- SUBSTANCE: "MINVYK"
  amyloid nucleation score: 4.33
- SUBSTANCE: "VQEYGASCKSMTGLGTLKCK"
  amyloid nucleation score: 0.876
- SUBSTANCE: "RLKGSPHVLL"
  amyloid nucleation score: -1.69
- SUBSTANCE: "FYIFCDDFTGCS"
  amyloid nucleation score: 1.84
- SUBSTANCE: "RRWGLFDIFKMPKELNMLHW"
  amyloid nucleation score: 0.915
- SUBSTANCE: "CSGCQARIWALDRRRRVEVS"
  amyloid nucleation score: 0.213
- SUBSTANCE: "NKMGFFNTISGKRS"
  amyloid nucleation score: -0.556
- SUBSTANCE: "MFCKAVSKERWMV"
  amyloid nucleation score: -0.269
- SUBSTANCE: "FPRLGCARTFSDHSMLACTI"
  amyloid nucleation score: 0.098
- SUBSTANCE: "NLLTWRD"
  amyloid nucleation score: 0.743
- SUBSTANCE: "RAVLSTSELGLPTV"
  amyloid nucleation score: 0.27
- SUBSTANCE: "IEVDPTNSKKSAPDTHLGSL"
  amyloid nucleation score: -0.001
- SUBSTANCE: "LNMLMMVGVWGYFVITIHTI"
  amyloid nucleation score: 0.68
- SUBSTANCE: "ANVNSWTRPAIMIVLDWGVP"
  amyloid nucleation score: 0.868
